The reported measurements were obtained from ChEMBL document CHEMBL3507680.

Reported cytotoxicity at 70.5 h is given for each of the following molecules.
Experiment: Human HepG2 cell viability assay in 384 well format
Type: toxicity, cell-based
Parameters: dose 125 nL, time 70.5 hour; concentration not given beside the values
Conditions: HepG2 cells, read-out: Inhibition
Reply with the number and its unit after it.

Check out these entries, answers already filled in.
[[record]]
molecule = "Cc1nonc1NC(=O)CCn1cc(Br)ccc1=O"
result = "6.64%"

[[record]]
molecule = "CN(CCO)CC1COCCN1C(=O)C1CCCCC1 (stereo unspecified)"
result = "-14.2%"

[[record]]
molecule = "COc1ccc(C2CC(=O)Oc3cc(C)[nH]c(=O)c32)c(OC)c1 (stereo unspecified)"
result = "-19.2%"

[[record]]
molecule = "CCC1COCCN1C(=O)CNC(=O)c1ccsc1 (stereo unspecified)"
result = "-8.2%"


Inquiry: Quickly give me recorded cytotoxicity at 70.5 h for `O=C(NCc1nnc2n1CCCC2)N(Cc1ccccc1F)C1CC1`
Reply text: -11.1%

Inquiry: Find the measured cytotoxicity at 70.5 h of `Cc1ccnc(NC(=O)C2(n3cnnn3)CCCCC2)c1` and report it.
Reply text: -23.1%

* * *

Assay: Human HepG2 cell viability assay in 384 well format
Format: toxicity, cell-based
Parameters: dose 125 nL, time 70.5 hour; concentration not given beside the values
Conditions: HepG2 cells, read-out: Inhibition
PARAMETER MEASURED: cytotoxicity at 70.5 h

# annotated cases, reported cytotoxicity at 70.5 h shown
[[record]]
molecule = "COc1cccc(-c2n[nH]cc2CNCC2CCS(=O)(=O)C2)c1 (stereo not drawn)"
parameter_measured = "cytotoxicity at 70.5 h"
result = "0.998%"

[[record]]
molecule = "CCNC(=O)C(C)NC(=O)c1cnc(-c2ccc(C)cc2C)s1 (stereo not drawn)"
parameter_measured = "cytotoxicity at 70.5 h"
result = "1.57%"

[[record]]
molecule = "Cn1cc(N2CC3(COCCN(Cc4nccs4)C3)OCC2=O)cn1 (stereo not drawn)"
parameter_measured = "cytotoxicity at 70.5 h"
result = "-9.93%"


Inquiry: For `COC(=O)[C@H](C)NC(=O)c1nc(C2CC2)n(-c2ccccc2Cl)n1` , write its cytotoxicity at 70.5 h.
Reply text: -11.3%

Inquiry: Using known records, supply cytotoxicity at 70.5 h for CCc1nc2n(n1)CC(NCc1noc(-c3ccc(C)cc3)n1)CC2 (stereo not drawn)
Reply text: 0.731%

Inquiry: Query cytotoxicity at 70.5 h for Cc1n[nH]c(C2CN(C(=O)c3cc(C)sc3C)CCO2)n1 (stereo not drawn)
Reply text: -6.3%

Inquiry: Look up and state reported cytotoxicity at 70.5 h for `CC(C)c1noc(CCCC(=O)N2CCN(Cc3ccncc3)CC2)n1`
Reply text: -17.6%

Inquiry: Tell us which cytotoxicity at 70.5 h value is on record for `COCCN1CCCC12CCN(c1ncccn1)CC2`
Reply text: -14.3%

Inquiry: Consider the molecule `O=C(COc1coc(CN2CCCCC2)cc1=O)Nc1ccccc1Cl` and give its recorded cytotoxicity at 70.5 h.
Reply text: -9.78%

Inquiry: Read off the recorded cytotoxicity at 70.5 h for `COc1ccc2c(OCC(=O)NCC(F)(F)F)ccnc2c1`
Reply text: -15.8%

Inquiry: Tell us which cytotoxicity at 70.5 h value is on record for Cc1cc(NC(=O)C(C)Nc2cccc(COCc3ccco3)c2)on1 (stereo not drawn)
Reply text: -20.2%

Inquiry: Please look at this molecule and report its cytotoxicity at 70.5 h: COCCn1cc(NC(=O)NC(C)CCc2ccccc2)ccc1=O (stereo not drawn)
Reply text: -7.43%

Inquiry: Write down cytotoxicity at 70.5 h measured for item `CC(C)c1nnc2n1CCN(C(=O)c1ccccc1OCC1CC1)C2`
Reply text: -4.61%

Inquiry: Tell me measured cytotoxicity at 70.5 h for `CCS(=O)(=O)NCC(=O)N1CCC(c2cc3ccccc3[nH]2)CC1` please.
Reply text: 1.52%

Inquiry: Determine its reported cytotoxicity at 70.5 h: `O=c1[nH]c(NCc2cccc(-c3ccccc3)c2)nc2c1CCNC2`
Reply text: -21%

Inquiry: Return cytotoxicity at 70.5 h for the following molecule: CC1CCc2nn(CCNC(=O)Cc3ccc(F)cc3)c(=O)cc2C1 (stereo not drawn)
Reply text: -4.91%

Inquiry: Write down cytotoxicity at 70.5 h measured for item CN(CCCO)Cc1cc(Cl)ccc1OCC(O)CN1CCCCCC1 (stereo not drawn)
Reply text: -7.24%

Inquiry: State, in one line, measured cytotoxicity at 70.5 h of `O[C@@H]1CN(c2nc3ccccc3s2)CC[C@H]1c1ccc2c(c1)OCO2`
Reply text: -3.71%

Inquiry: Given CC(NCc1ccc(OCC(N)=O)cc1)c1ccc(Cl)cc1 (stereo not drawn) , respond with its cytotoxicity at 70.5 h.
Reply text: 15.5%

Inquiry: Look up cytotoxicity at 70.5 h of N#CC1COCCN1C(=O)c1cccc2cc[nH]c12 (stereo not drawn) and report it.
Reply text: -13.5%

Inquiry: Answer with reported cytotoxicity at 70.5 h of `Cn1ccnc1CN1C(=O)CO[C@H]2CN(CCCc3ccccc3)C[C@H]21`
Reply text: -1.68%

Inquiry: Using known records, supply cytotoxicity at 70.5 h for `CCOc1ccc(N(C)Cc2nc(C)c(C)o2)cc1`
Reply text: 15.3%

* * *

Test: Human HepG2 cell viability assay in 384 well format
Assay type: toxicity, cell-based
Design: dose 125 nL, time 70.5 hour; concentration not given beside the values
Conditions: HepG2 cells, read-out: Inhibition
Each entry below lists one item and its recorded cytotoxicity at 70.5 h value.
Value expressed in %; do not type the unit.

Recorded cytotoxicity at 70.5 h, per entry:
[[record]]
given_smiles = "CCOC(=O)c1ccc(NC(=O)Cn2cc(I)cn2)cc1"
parameter_measured = "cytotoxicity at 70.5 h"
unit_abbreviation = "%"
measured_number = -4.39

[[record]]
given_smiles = "Cc1cnc(NC(=O)N2CCCCCC2)s1"
parameter_measured = "cytotoxicity at 70.5 h"
unit_abbreviation = "%"
measured_number = -4.75

[[record]]
given_smiles = "CC(C)CC(=O)N1CC[C@@H]2CN(Cc3cccnc3)S(=O)(=O)[C@@H]2CC1"
parameter_measured = "cytotoxicity at 70.5 h"
unit_abbreviation = "%"
measured_number = -4.78

[[record]]
given_smiles = "COc1cc(NC(=O)c2ccc(F)cc2Cl)c(C(=O)N(C)C)cc1OC"
parameter_measured = "cytotoxicity at 70.5 h"
unit_abbreviation = "%"
measured_number = -8.85

[[record]]
given_smiles = "Cc1cccc2c1nc1n2[C@@H](CNC(=O)c2cnccn2)COC1"
parameter_measured = "cytotoxicity at 70.5 h"
unit_abbreviation = "%"
measured_number = 12.8


Proceeding to the next compound to report its cytotoxicity at 70.5 h.
Inquiry: Tell me measured cytotoxicity at 70.5 h for `COCC(=O)N1CC[C@]2(O)CCN(C(=O)CCc3ccsc3)C[C@@H]2C1` please.
Reply text: -10.1

* * *

Assay: Human HepG2 cell viability assay in 384 well format
Format: toxicity, cell-based
Parameters: dose 125 nL, time 70.5 hour; concentration not given beside the values
Details: HepG2 cells, read-out: Inhibition
Below, each of the compounds is paired with its reported cytotoxicity at 70.5 h value.
Answer format: numeric, % implied, no suffix.

Below are worked cases with known answers.
[[record]]
compound = "CCn1ccc(NC(=O)CCn2nc(C)c3ccccc32)n1"
measured_number = -10.3

[[record]]
compound = "CCn1ccnc1C1CCN(C(=O)C(O)c2ccc(OC)cc2)CC1 (stereo unspecified)"
measured_number = 4.82

[[record]]
compound = "CC(C)COC[C@@H]1CC[C@H]2[C@H](CCN2C(=O)c2ccncc2F)O1"
measured_number = 1.98

[[record]]
compound = "CNC(=O)NCC(CO)Cc1cccc(OC(F)(F)F)c1 (stereo unspecified)"
measured_number = -8.42

[[record]]
compound = "Cc1nc(-c2cc(C(=O)NC(C)(C(=O)O)C(C)C)co2)cs1 (stereo unspecified)"
measured_number = -7.3


Inquiry: Specify reported cytotoxicity at 70.5 h for the compound shown: O=C1C(Nc2nccn3cnnc23)CCCN1c1ccccc1Cl (stereo unspecified)
Reply text: -2.45

Inquiry: Specify reported cytotoxicity at 70.5 h for the compound shown: `COc1c(Br)c(C(=O)NC2CCCC2)nn1C`
Reply text: -9.06

* * *

Known cytotoxicity at 70.5 h of a selection of compounds
Test: Human HepG2 cell viability assay in 384 well format
Type: toxicity, cell-based
Set-up: dose 125 nL, time 70.5 hour; concentration not given beside the values
Conditions: HepG2 cells, read-out: Inhibition
Value expressed in %; do not type the unit.

Check out these entries, answers already filled in.
[[record]]
compound = "CC(C)OCCCNC(=O)[C@@]12CNC[C@@H]1CN(S(C)(=O)=O)C2"
measured_number = 13.6

[[record]]
compound = "OCC1(O)CCN(c2ccnc3c(C(F)(F)F)cccc23)CC1"
measured_number = -3.41

[[record]]
compound = "Cn1cnnc1C1CCCN(C(=O)NCc2ccc3c(c2)OCO3)C1 (stereo unspecified)"
measured_number = -0.469


Inquiry: Kindly indicate its recorded cytotoxicity at 70.5 h. Item: `COc1cc(N2CCc3ncnc(-c4cnn(C)c4)c3CC2)ncn1`
Reply text: -12

Inquiry: Name the recorded cytotoxicity at 70.5 h of the compound listed here: Cc1cc(C[S+]([O-])Cc2ccccc2F)on1 (stereo unspecified)
Reply text: -8.66

Inquiry: Could you please provide reported cytotoxicity at 70.5 h for C1CCC(CNC2CCCN(Cc3noc(C4CC4)n3)C2)C1 (stereo unspecified) ? Thanks!
Reply text: -10.4

Inquiry: Give recorded cytotoxicity at 70.5 h. `CNS(=O)(=O)CC(=O)N1CCC(c2cc3ccccc3[nH]2)CC1`
Reply text: 1.33

Inquiry: Look up cytotoxicity at 70.5 h of `CC(C)OC(=O)N1CCC(Nc2ncc(Br)cn2)CC1` and report it.
Reply text: -2.18

Inquiry: Let me know recorded cytotoxicity at 70.5 h for `CC(C)OC[C@H]1CCC[C@]12CN(S(=O)(=O)c1cn(C)cn1)CCO2` , thanks.
Reply text: -4.1

Inquiry: Specify measured cytotoxicity at 70.5 h for `Cc1cc(N(C)CCCn2cccn2)nc(-c2cccnc2)n1` .
Reply text: 11.2

Inquiry: Answer with reported cytotoxicity at 70.5 h of `COC(=O)CCn1ccc(=O)c2ccc(OC)cc21`
Reply text: 19.7
